All figures here come from patent US4393178A.

experiment: ΔT = Tc(cooling) - Tn(heating), DSC; type: physicochemical; settings: 1% salt in PET, 2-roll mill 270 °C 5 min; 10 °C/minute
readout: ΔT (°C)
Respond with the bare value in °C.

Request: Please report the recorded ΔT for O=C(O)c1cccc([N+](=O)[O-])c1 [meta-nitrobenzoic acid] .
Result: 106

Request: Please report the recorded ΔT for O=C(O)c1ccccc1O [ortho-hydroxy benzoic acid] .
Result: 105

Request: Please report the recorded ΔT for O=C(O)c1ccc(Oc2ccccc2)cc1 [para-oxyphenylbenzoic acid] .
Result: 105

Request: Please report the recorded ΔT for O=C(O)c1ccc(Cl)cc1Cl [2,4-dichlorobenzoic acid] .
Result: 109

Request: Please report the recorded ΔT for O=C(O)c1c(O)cc(O)cc1O [2,4,6-dihydroxy benzoic acid] .
Result: 97

Request: Please report the recorded ΔT for O=C(O)c1ccccc1[N+](=O)[O-] [ortho-nitrobenzoic acid] .
Result: 106

Request: Please report the recorded ΔT for O=C(O)c1ccccc1O [ortho-ONa-benzoic acid] .
Result: 110

Request: Please report the recorded ΔT for O=C(O)c1cc([N+](=O)[O-])ccc1Cl [2-chloro-5-nitrobenzoic acid] .
Result: 108

Request: Please report the recorded ΔT for O=C(O)c1cccc(Cl)c1 [meta-chlorobenzoic acid] .
Result: 107

Request: Please report the recorded ΔT for O=C(O)c1ccccc1 [sodium benzoate, reference compound] .
Result: 99

----------
assay: Solubility parameter δ of the acid; details: product for the acid; further: unit not given here
readout: δ × pKH.sbsb.2O

Request: Please report the recorded δ × pKH.sbsb.2O for O=C(O)c1ccccc1[N+](=O)[O-] .
Result: 30

Request: Please report the recorded δ × pKH.sbsb.2O for O=C(O)c1cc([N+](=O)[O-])ccc1Cl .
Result: 29

Request: Please report the recorded δ × pKH.sbsb.2O for O=C(O)c1ccc(Cl)cc1Cl .
Result: 34

Request: Please report the recorded δ × pKH.sbsb.2O for O=C(O)c1ccc(O)cc1O [2,4-dihydroxy benzoic acid] .
Result: 47

----------
Exercise: state measured Tn(composition)-Tn(polyester) for each of the compounds provided.
test: Crystallisation peak temperature on heating (Tn), DSC; format: physicochemical; settings: PET I.V. 0.73 + 1% salt, 2-roll mill 300 °C 2 min; 10 °C/minute
Respond with the bare value in °C.

Request: Please report the recorded Tn(composition)-Tn(polyester) for O=C([O-])c1c(Cl)cccc1Cl.[Na+] [sodium 2,6-dichlorobenzoate] .
Result: 25

Request: Please report the recorded Tn(composition)-Tn(polyester) for O=C(O)c1ccccc1Cl .
Result: 26

Request: Please report the recorded Tn(composition)-Tn(polyester) for O=C([O-])c1ccc(O)cc1.[Na+] [sodium p-hydroxybenzoate] .
Result: 20

Request: Please report the recorded Tn(composition)-Tn(polyester) for O=C(O)c1ccc(Cl)cc1Cl .
Result: 23

----------
assay: ΔT = Tc(cooling) - Tn(heating), DSC; format: physicochemical; conditions: 1% salt in PET, 2-roll mill 270 °C 5 min; 10 °C/minute
Exercise: state measured ΔT for each of the compounds provided.
Respond with the bare value in °C.

Request: Please report the recorded ΔT for O=C(O)c1cc(O)ccc1O [2,5-dihydroxy benzoic acid] .
Result: 103

Request: Please report the recorded ΔT for O=C(O)c1ccc([N+](=O)[O-])cc1 .
Result: 102

Request: Please report the recorded ΔT for O=C(O)c1cc([N+](=O)[O-])cc([N+](=O)[O-])c1 .
Result: 102

Request: Please report the recorded ΔT for O=C(O)c1ccc(O)cc1O [2,4-dihydroxy benzoic acid] .
Result: 99
